Source: patent US7553496B2

Tested on: laser-induced CNV
Assay: Laser-induced choroidal neovascularization (CNV) volume, confocal microscopy
Format: in vivo, mouse
Conditions: given with VEGF-A164 after laser injury
assay endpoint: effect on VEGF-A-induced suppression of CNV

1) O.O.O.O.O.O.O.O.O.O=C([O-])[C@@H]1[O][Sb]2([O-])([O][Sb]34([OH])[O][C@H]([C@H](O)CO)[C@H]([O]3)[C@H](C(=O)[O-])[O]4)[O][C@H]([C@H](O)CO)[C@@H]1[O]2.[Na+].[Na+].[Na+] [sodium stibogluconate] | abolished
2) C=CC1=C(C)c2cc3[n-]c(cc4[n-]c(cc5nc(cc1n2)C(C)=C5C=C)c(C)c4CCC(=O)O)c(CCC(=O)O)c3C.[Zn+2] | abolished
